molecular target: human GPR120 (Homo sapiens, UniProt Q5NUL3); construct: host or cells: HEK293 cells co-expressing Gqi5; experiment: Intracellular Ca2+ assay in human GPR120 stable cell line (HEK293 co-expressing Gqi5), Flexstation; assay type: cell-based; settings: % activity at 5 μM compared to the maximal activity of GW9508 at 6.7 μM (=100%); human GPR120 cells, Ca2+ fluorescence
Sequence (Q5NUL3 whole entry): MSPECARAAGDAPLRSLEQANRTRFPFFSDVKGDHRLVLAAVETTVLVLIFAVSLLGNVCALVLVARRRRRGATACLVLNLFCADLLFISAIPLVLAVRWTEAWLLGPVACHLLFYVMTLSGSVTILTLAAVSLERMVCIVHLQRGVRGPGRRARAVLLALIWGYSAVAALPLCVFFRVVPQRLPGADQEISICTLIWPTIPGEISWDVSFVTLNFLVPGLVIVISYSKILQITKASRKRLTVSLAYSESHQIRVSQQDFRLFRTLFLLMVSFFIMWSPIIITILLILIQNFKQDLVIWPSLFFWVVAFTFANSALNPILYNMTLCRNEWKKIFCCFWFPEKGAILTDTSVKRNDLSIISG
experimental readout: % Activity (GW9508 Reference Compound) (%)

CC1(C)Cc2cc(F)cc(CCc3ccc(OCC(=O)O)cc3)c2O1 [Example 70] ... 117.72
[2H]C([2H])(Oc1ccc(CC(C)C(=O)O)cc1F)c1cc(F)cc2c1OC(C)(C)C2 (centres unmarked) [Example 230] ... 86.25
COc1cccc(-c2cc(COc3ccc(CC(C)C(=O)O)cc3)c3c(c2)CC(C)(C)O3)c1 (centres unmarked) [Example 86] ... 5.23
CC(Cc1ccc(OCc2cc(Cl)cc3c2OC(C)(C)C3)c(F)c1)C(=O)O (centres unmarked) [Example 10] ... 106.7955

(I) CC1(C)Cc2cc(F)cc(COc3ccc4c(CC(=O)O)cc(=O)oc4c3)c2O1 [Example 263]
(II) CC1(C)Cc2cc(Cl)cc(COc3cc(F)c(CCC(=O)O)c(F)c3)c2O1 [Example 54]
Ask: I or II : whose % Activity (GW9508 Reference Compound) is greater? Use the label to indicate which entry you chose.
Result: II

(a) CC(Cc1ccc(OCc2cc(Cl)cc3c2OC(C)(C)C3)c(C(F)(F)F)c1)C(=O)O (centres unmarked) [Example 9]
(b) CC(C)C(CC(=O)O)c1ccc(OCc2cc(Cl)cc3c2OC(C)(C)C3)cc1 (centres unmarked) [Example 266]
Ask: Lowest % Activity (GW9508 Reference Compound)? choose a or b Use the label to indicate which entry you chose.
Result: b
(b: 42.73%, a: 112.8%)

----------
biological target: human GPR120 (Homo sapiens, UniProt Q5NUL3); construct: host or cells: HEK293 cells co-expressing Gqi5; assay: Intracellular Ca2+ assay in human GPR120 stable cell line (HEK293 co-expressing Gqi5), Flexstation; format: cell-based; details: % activity at 5 μM compared to the maximal activity of GW9508 at 6.7 μM (=100%); human GPR120 cells, Ca2+ fluorescence
experimental readout: % Activity (GW9508 Reference Compound) (%)

Examples from the recorded data:
CC(C)Oc1ccc(Cl)cc1COc1ccc2c(c1)CCC2CC(=O)O (centres unmarked) [Example 258] ... 139.95
CC(Cc1ccc(OCc2cc(Cl)cc3c2OC(C)(C)C3)c(CN(C)C)c1)C(=O)O (centres unmarked) [Example 88] ... 118.92
CCCc1cc(OCc2cc(Cl)cc3c2OC(C)(C)C3)c(F)cc1CCC(=O)O [Example 73] ... 114.85
[2H]C([2H])(Oc1ccc(CCC(=O)O)c(CC)c1F)c1cc(F)cc2c1OC(C)(C)C2 [Example 228] ... 119.11

(P) C[C@H](Cc1ccc(OCc2cc(F)cc3c2OC(C)(C)C3)cc1)C(=O)O [Example 65]
(Q) CC(=O)NCCOC(=O)C(C)Cc1ccc(OCc2cc(Cl)cc3c2OC(C)(C)C3)c(C(F)(F)F)c1 (centres unmarked) [Example 126]
Ask: P or Q : whose % Activity (GW9508 Reference Compound) is greater? Use the label to indicate which entry you chose.
Result: P

(A) COc1cc(OCc2cc(F)cc3c2OC(C)(C)C3)ccc1CCC(=O)O [Example 50]
(B) CC(Cc1ccc(NC(=O)c2cc(F)cc3c2OC(C)(C)C3)cc1)C(=O)O (centres unmarked) [Example 68]
Ask: A or B : whose % Activity (GW9508 Reference Compound) is greater? Use the label to indicate which entry you chose.
Result: A
